Biological target: T1, human Y2 receptor (human, UniProt P49146 1-381)
T1 sequence (looked up): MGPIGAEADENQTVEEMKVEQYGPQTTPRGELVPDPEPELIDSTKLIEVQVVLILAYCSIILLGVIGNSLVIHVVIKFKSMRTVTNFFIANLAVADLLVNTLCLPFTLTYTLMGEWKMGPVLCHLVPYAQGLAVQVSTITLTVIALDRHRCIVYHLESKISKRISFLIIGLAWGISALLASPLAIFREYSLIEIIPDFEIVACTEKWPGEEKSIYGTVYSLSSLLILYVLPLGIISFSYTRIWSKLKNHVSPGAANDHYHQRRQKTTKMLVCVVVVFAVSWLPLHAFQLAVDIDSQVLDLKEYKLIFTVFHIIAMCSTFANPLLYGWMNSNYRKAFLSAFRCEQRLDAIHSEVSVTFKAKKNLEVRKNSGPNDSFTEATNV
Assay: cell-based or functional assay
Non-standard residues stand in square brackets, D forms with d. No end group written: not given here. *: point of attachment. X11 = ((1S)-1-carboxy-3-methylbutyl)carbamoyl, CC(C)C[C@H](NC(=O)*)C(=O)O; Phe(3-Me) = Cc1cccc(C[C@H](N)C(=O)O)c1; tBuAla = CC(C)(C)C[C@H](N)C(=O)O; Cha = N[C@@H](CC1CCCCC1)C(=O)O; Aib = CC(C)(N)C(=O)O; Ahx = NCCCCCC(=O)O
measure.name: GBA EC50 Ratio ([35S]GTPγS binding)

Examples with their reported GBA EC50 Ratio ([35S]GTPγS binding) follow.
binder	GBA EC50 Ratio ([35S]GTPγS binding)
X11-S[dP]RH[Cha][tBuAla]NK[Aib]TRQR[Cha]-NH2 (SMILES CC(C)C[C@H](NC(=O)N[C@@H](CO)C(=O)N1CCC[C@@H]1C(=O)N[C@@H](CCCNC(=N)N)C(=O)N[C@@H](Cc1c[nH]cn1)C(=O)N[C@@H](CC1CCCCC1)C(=O)N[C@@H](CC(C)(C)C)C(=O)N[C@@H](CC(N)=O)C(=O)N[C@@H](CCCCN)C(=O)NC(C)(C)C(=O)N[C@H](C(=O)N[C@@H](CCCNC(=N)N)C(=O)N[C@@H](CCC(N)=O)C(=O)N[C@@H](CCCNC(=N)N)C(=O)N[C@@H](CC1CCCCC1)C(N)=O)[C@@H](C)O)C(=O)O, also called compound No. 253) [[(1S)-1-carboxy-3-methylbutyl]carbamoyl-[D-Pro24, Cha27,36, Leu(Me)28, Lys30, Aib31]-PYY(23-36)]	0.85 EC50 compound/EC50 PYY(3-36)
IK[Ahx]RAYINLITRQRY-NH2 (N-terminus assumed; SMILES CC[C@H](C)[C@H](N)C(=O)N[C@@H](CCCCN)C(=O)NCCCCCC(=O)N[C@@H](CCCNC(=N)N)C(=O)N[C@@H](C)C(=O)N[C@@H](Cc1ccc(O)cc1)C(=O)N[C@H](C(=O)N[C@@H](CC(N)=O)C(=O)N[C@@H](CC(C)C)C(=O)N[C@H](C(=O)N[C@H](C(=O)N[C@@H](CCCNC(=N)N)C(=O)N[C@@H](CCC(N)=O)C(=O)N[C@@H](CCCNC(=N)N)C(=O)N[C@@H](Cc1ccc(O)cc1)C(N)=O)[C@@H](C)O)[C@@H](C)CC)[C@@H](C)CC, also called compound No. 353) [[Ile22,28,31, Lys23, Acp24, Ala26]-PYY(22-36)]	4.8 EC50 compound/EC50 PYY(3-36)
Ac-E[dP]RH[Cha][Cha]NK[Aib]TRQR[Phe(3-Me)]-NH2 (SMILES CC(=O)N[C@@H](CCC(=O)O)C(=O)N1CCC[C@@H]1C(=O)N[C@@H](CCCNC(=N)N)C(=O)N[C@@H](Cc1c[nH]cn1)C(=O)N[C@@H](CC1CCCCC1)C(=O)N[C@@H](CC1CCCCC1)C(=O)N[C@@H](CC(N)=O)C(=O)N[C@@H](CCCCN)C(=O)NC(C)(C)C(=O)N[C@H](C(=O)N[C@@H](CCCNC(=N)N)C(=O)N[C@@H](CCC(N)=O)C(=O)N[C@@H](CCCNC(=N)N)C(=O)N[C@@H](Cc1cccc(C)c1)C(N)=O)[C@@H](C)O, also called compound No. 259) [Ac-[Glu23, D-Pro24, Cha27,28, Lys30, Aib31, Phe(3Me)36]-PYY(23-36)]	0.93 EC50 compound/EC50 PYY(3-36)

Input: Using known records, supply GBA EC50 Ratio ([35S]GTPγS binding) for Ac-S[dP]RH[Cha][Cha]NL[Aib]TRQRX-NH2 (not fully specified (residue 14); printed as Ac-Ser-D-Pro-Arg-His-Cha-Cha-Asn-Leu-Aib-Thr-Arg-Gln-Arg-DL-Phe(2,6-Me2)-NH2; also: residue 36 is DL racemic, residue 36 is a DL racemate; also called compound No. 201) [Ac-[D-Pro24, Cha27,28, Aib31, DL-Phe(2,6-Me2)36]-PYY(23-36)]
Output: 2 EC50 compound/EC50 PYY(3-36)

Reference for the values: patent US20120172293A1
